Just for reference, patent US20260355196A1 is where these values come from.

Quick reference for DC50 among some molecules
- experimental-target: PIP4K2C (Homo sapiens, UniProt Q8TBX8)
- Sequence (Q8TBX8 1-421): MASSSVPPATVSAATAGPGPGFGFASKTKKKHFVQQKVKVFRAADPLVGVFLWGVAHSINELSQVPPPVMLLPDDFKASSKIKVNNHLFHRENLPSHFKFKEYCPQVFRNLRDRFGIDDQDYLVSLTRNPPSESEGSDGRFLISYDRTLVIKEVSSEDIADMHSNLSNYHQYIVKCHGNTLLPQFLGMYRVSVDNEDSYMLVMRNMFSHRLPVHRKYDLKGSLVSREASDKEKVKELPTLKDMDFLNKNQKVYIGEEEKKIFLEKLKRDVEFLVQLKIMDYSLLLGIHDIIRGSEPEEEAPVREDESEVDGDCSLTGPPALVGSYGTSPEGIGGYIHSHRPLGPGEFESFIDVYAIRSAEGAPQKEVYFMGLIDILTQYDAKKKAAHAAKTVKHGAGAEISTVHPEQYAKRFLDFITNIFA
- measurement-description: HiBiT PIP4K2C degradation assay in MOLT-4 cells (endogenous PIP4K2C C-terminally tagged with HiBiT)
- Format: cell-based
- Parameters: untagged in primary human PBMCs and monocyte-derived dendritic cells
- applied-conditions: 6 hours of incubation time, rather than 24 hours; MOLT-4, top concentration 10 micromolar; read-out: HiBIT-degradation MOLT4 PIP4k2C DC50 (6 hours, marked *)

# count of solved cases: 2
1) Cn1nc(C2CCC(=O)NC2=O)c2ccc(N3CCN([C@H]4CC[C@H](C(=O)N[C@H]5CC[C@H](Nc6ncc(F)c(-c7cccc(-n8ccccc8=O)c7)n6)CC5)CC4)CC3)cc21 (stereo partly drawn); < 500 nM
2) O=C1CCC(Nc2ccc(N3CCN([C@H]4CC[C@H](NC(=O)[C@H]5CC[C@H](Nc6ncc(F)c(-c7cccc(-n8ccccc8=O)c7)n6)CC5)CC4)CC3)c(F)c2)C(=O)N1 (stereo partly drawn); < 500 nM

I would be grateful if you could share the reported DC50 for O=C1CC[C@@H](Nc2ccc(N3CCN(C[C@H]4CC[C@H](CNC(=O)[C@H]5CC[C@H](Nc6ncc(F)c(-c7cccc(-n8ccccc8=O)c7)n6)CC5)CC4)CC3)c(F)c2)C(=O)N1 (single isomer, unassigned) .
< 500 nM

---

- experimental-target: PIP4K2C (Homo sapiens, UniProt Q8TBX8)
- measurement-description: HiBiT PIP4K2C degradation assay in MOLT-4 cells (endogenous PIP4K2C C-terminally tagged with HiBiT)
- Assay type: cell-based
- Design: untagged in primary human PBMCs and monocyte-derived dendritic cells
- applied-conditions: 24 hours incubation, MOLT-4, top concentration 10 micromolar; read-out: HiBIT-degradation MOLT4 PIP4k2C 24 hours DC50
reported-metric: DC50

# count of solved cases: 2
1) O=C1CCC(Nc2ccc(C3CCN(CCC4CCN(C(=O)[C@H]5CCC[C@@H](Nc6ncc(F)c(-c7cccc(-n8ccccc8=O)c7)n6)C5)CC4)CC3)c(F)c2)C(=O)N1 (stereo partly drawn); > 5000 nM
2) Cn1nc(C2CCC(=O)NC2=O)c2ccc(N3CCC(CN4CCC(NC(=O)[C@H]5CCC[C@@H](Nc6ncc(F)c(-c7cccc(-n8ccccc8=O)c7)n6)C5)CC4)CC3)cc21 (relative stereo); < 500 nM

I would be grateful if you could share the reported DC50 for O=C1CCC(Nc2ccc(N3CCN(CC4CCN(C(=O)[C@H]5CC[C@H](Nc6ncc(F)c(-c7cccc(-c8ccc[nH]c8=O)c7)n6)CC5)CC4)CC3)c(F)c2)C(=O)N1 (stereo partly drawn) .
< 500 nM
